These entries and their values trace back to patent US20180244785A1.

Molecular target: T1, soluble FGFR4 receptor protein (human, UniProt P22455 144-369)
T1 sequence: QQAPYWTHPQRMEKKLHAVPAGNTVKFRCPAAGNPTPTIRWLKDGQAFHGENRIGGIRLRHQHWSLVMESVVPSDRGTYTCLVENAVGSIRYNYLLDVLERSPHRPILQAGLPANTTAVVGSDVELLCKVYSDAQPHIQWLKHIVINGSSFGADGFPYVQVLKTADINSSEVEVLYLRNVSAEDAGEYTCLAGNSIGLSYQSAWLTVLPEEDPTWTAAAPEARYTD
Assay: BLI Octet RED96, antibody on anti-hIgG Fc tip
Method: Briefly, the Pall ForteBio Octet RED96 Bio-Layer Interferometry system was used to determine the specificity of anti-FGFR antibodies for FGFR1c, FGFR2c, FGFR3c, and FGFR4. […] The baseline step was followed by an association step of 300 seconds wherein the binding interaction between the immobilized antibodies and soluble receptors was measured. […] Each binding response was measured and reported real time on a sensorgram trace. […]

| binder | koff [s⁻¹] |
| --- | --- |
| Vk10 combined with the VH of Ab15 (antibody, V domains shown, captured on anti-human IgG Fc tips) VH: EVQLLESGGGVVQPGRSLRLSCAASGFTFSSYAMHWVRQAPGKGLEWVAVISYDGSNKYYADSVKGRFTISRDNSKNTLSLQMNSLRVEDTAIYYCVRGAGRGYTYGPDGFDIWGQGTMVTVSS VL: DIVMTQSPDSLAVSLGERATISCTSSRSLLHSDGKTYVYWYQQKPGQPPKLLIYELSNRFSGVPDRFSGSGSRTDFTLTISSLQAEDVAVYYCMQYIEAPLTFGGGTKVEIK | 0.000585 |
